Reported Fold decrease in affinity by item:
Experimental system: T1, human NMI (N-myc Interacting protein), recombinant protein (human, UniProt Q13287 1-307, limits assumed)
T1 construct: Gene ID: 9111; also called hNMI; antigen
T1 sequence (looked up): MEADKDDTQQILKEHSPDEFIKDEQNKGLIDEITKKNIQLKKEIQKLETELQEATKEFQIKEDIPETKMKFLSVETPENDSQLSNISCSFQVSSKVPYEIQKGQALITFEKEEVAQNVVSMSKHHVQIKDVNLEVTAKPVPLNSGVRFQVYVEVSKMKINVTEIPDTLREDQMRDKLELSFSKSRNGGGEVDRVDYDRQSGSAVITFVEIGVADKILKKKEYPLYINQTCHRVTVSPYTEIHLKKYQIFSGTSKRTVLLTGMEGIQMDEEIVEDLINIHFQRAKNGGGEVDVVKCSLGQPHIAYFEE
Run description: ELISA EC50 against parent 98G10
Could you give me the number in fold? Just the number is fine.

Fold decrease in affinity lookup needed for 98G10-12 (antibody, V domains shown, also called 98G10 T75D (VH)) VH: QEQLEESGGDLVKPEGSLTLTCTASGFSFSASYWICWVRQAPGKGLEWIACIYGGSSGSAYYASWAKGRFTISKDSSTTVTLQMTSLTAADTATYFCARAGYYNYGSAGDIYPSSFKLWGPGTLVTVSS VL: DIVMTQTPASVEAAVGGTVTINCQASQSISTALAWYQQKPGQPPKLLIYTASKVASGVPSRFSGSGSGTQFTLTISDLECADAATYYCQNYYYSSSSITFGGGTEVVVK , thanks.
0.45

Fold decrease in affinity lookup needed for 98G10-11 (antibody, V domains shown, also called 98G10 Q70D (VL)) VH: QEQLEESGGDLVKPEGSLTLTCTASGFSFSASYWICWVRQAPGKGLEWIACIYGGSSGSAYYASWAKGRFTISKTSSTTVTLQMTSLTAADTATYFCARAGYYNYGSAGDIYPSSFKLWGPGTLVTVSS VL: DIVMTQTPASVEAAVGGTVTINCQASQSISTALAWYQQKPGQPPKLLIYTASKVASGVPSRFSGSGSGTDFTLTISDLECADAATYYCQNYYYSSSSITFGGGTEVVVK , thanks.
0.4

Fold decrease in affinity lookup needed for 98G10-9 (antibody, V domains shown, also called 98G10 T23K/T81Y (VH), T18R/Q70D/C80P (VL)) VH: QEQLEESGGDLVKPEGSLTLTCKASGFSFSASYWICWVRQAPGKGLEWIACIYGGSSGSAYYASWAKGRFTISKTSSTTVYLQMTSLTAADTATYFCARAGYYNYGSAGDIYPSSFKLWGPGTLVTVSS VL: DIVMTQTPASVEAAVGGRVTINCQASQSISTALAWYQQKPGQPPKLLIYTASKVASGVPSRFSGSGSGTDFTLTISDLEPADAATYYCQNYYYSSSSITFGGGTEVVVK , thanks.
0.72

Fold decrease in affinity lookup needed for 98G10-10 (antibody, V domains shown, also called 98G10 T23K/T75D/T81Y (VH), T18R/Q70D/C80P (VL)) VH: QEQLEESGGDLVKPEGSLTLTCKASGFSFSASYWICWVRQAPGKGLEWIACIYGGSSGSAYYASWAKGRFTISKDSSTTVYLQMTSLTAADTATYFCARAGYYNYGSAGDIYPSSFKLWGPGTLVTVSS VL: DIVMTQTPASVEAAVGGRVTINCQASQSISTALAWYQQKPGQPPKLLIYTASKVASGVPSRFSGSGSGTDFTLTISDLEPADAATYYCQNYYYSSSSITFGGGTEVVVK , thanks.
1.02

Fold decrease in affinity lookup needed for 98G10-7 (antibody, V domains shown, also called 98G10 T23K/T81Y (VH), T18R/C80P (VL)) VH: QEQLEESGGDLVKPEGSLTLTCKASGFSFSASYWICWVRQAPGKGLEWIACIYGGSSGSAYYASWAKGRFTISKTSSTTVYLQMTSLTAADTATYFCARAGYYNYGSAGDIYPSSFKLWGPGTLVTVSS VL: DIVMTQTPASVEAAVGGRVTINCQASQSISTALAWYQQKPGQPPKLLIYTASKVASGVPSRFSGSGSGTQFTLTISDLEPADAATYYCQNYYYSSSSITFGGGTEVVVK , thanks.
0.81
